List of growth values.
- Tested on: COLO 205 colon
- assay_details: NCI-60 one-dose screen, 48 h (100 = growth as untreated, 0 = no growth, -100 = all killed)
- measurement_setup: 10 µM unless noted
The panel holds about 83,000 compounds, 20% with a hit somewhere; the sample as a whole holds those more often.
measurement_label: growth (%)

[[record]]
compound = "CC1(C)O[C@H]2OC3CCC(=O)CC3(O)[C@H]2O1 (stereo not given in full)"
units_symbol = "%"
experimental_result = 105

[[record]]
compound = "CCCCSCC(=O)c1ccccc1"
units_symbol = "%"
experimental_result = 100

[[record]]
compound = "O=C(N/N=C/c1ccc(O)cc1O)c1ccc(Nc2ccnc(C(F)(F)F)c2)cc1"
units_symbol = "%"
experimental_result = 9.64

[[record]]
compound = "O=S(=O)(c1ccccc1)N1CCCN(c2nc(-c3ccccc3)nc3nc(-c4ccccc4)oc23)CC1"
units_symbol = "%"
experimental_result = 116

[[record]]
compound = "COc1cc2c(c(OC)c1OC)C(=O)N[C@@H]1[C@@H](O)[C@@H](O)[C@H](O)C[C@@H]21"
units_symbol = "%"
experimental_result = 108

[[record]]
compound = "CC(C)c1ccc(-n2c(=S)[nH]c3sc4c(c3c2=O)CCC(=O)C4)cc1"
units_symbol = "%"
experimental_result = 92.7

[[record]]
compound = "CCOC(=O)C1CCN(c2ccc(N3C[C@@H](CNCc4ccc(C(=N)N)cc4)OC3=O)cc2)CC1"
units_symbol = "%"
experimental_result = 103

[[record]]
compound = "CC[C@]12C=CCN3CC[C@@]4(c5ccc(OC)cc5N(C)[C@H]4[C@@](O)(C(=O)OC)[C@@H]1OC(=O)CCCN1CCOCC1)[C@@H]32"
units_symbol = "%"
experimental_result = 108

[[record]]
compound = "CCNCc1ccc(O)c2ncccc12"
units_symbol = "%"
experimental_result = 80.7

[[record]]
compound = "FC(F)(F)c1[nH]ncc1-c1nc2c(N3CCCCC3)cc3[nH]ncc3c2c2c1CCCC2"
units_symbol = "%"
experimental_result = -33.7

[[record]]
compound = "C#CCOc1ccc2ncnc(Nc3cccc(NC(=O)CCl)c3)c2c1"
units_symbol = "%"
experimental_result = 96.7

[[record]]
compound = "CC[C@@H](c1ccc2cc(OC)ccc2c1)C(C)(C)C(=O)F"
units_symbol = "%"
experimental_result = 90.2

[[record]]
compound = "CCn1c2ccc(O)cc2c2c(C)c3c[n+](C(C)C)ccc3c(C)c21"
units_symbol = "%"
experimental_result = 13.1

[[record]]
compound = "COc1cc(-c2nc3ccc(C)cc3[nH]2)ccc1OCC(=O)N=Nc1c(O)[nH]c2ccc(Cl)cc12"
units_symbol = "%"
experimental_result = -15.9

[[record]]
compound = "Cc1ccccc1CNc1c2ccccc2nc2ccccc12"
units_symbol = "%"
experimental_result = -18.5

[[record]]
compound = "COc1ccc(C2CC(c3ccc4c(c3)OCO4)=Nc3c(N)ncnc3N2)cc1 (stereo not given)"
units_symbol = "%"
experimental_result = 100

[[record]]
compound = "CCCCCCCCCCCCCCCCCCOc1ccccc1CC(=O)OCC[N+]1(C)CCOCC1"
units_symbol = "%"
experimental_result = 65.6

[[record]]
compound = "Fc1ccc2c(c1)c(-c1nc(-c3c[nH]c4ncccc34)cs1)cn2CCCN1CCOCC1"
units_symbol = "%"
experimental_result = 18.1

[[record]]
compound = "O=C(O)C1CN(c2cccc(Cl)c2)N(c2cccc(Cl)c2)C1=O (stereo not given)"
units_symbol = "%"
experimental_result = 94.5

[[record]]
compound = "COc1cc(C2C3=C(COC3=O)N(CCO)c3cc4c(cc32)OCCO4)cc(OC)c1OC (stereo not given)"
units_symbol = "%"
experimental_result = -85.9


###

List of growth values.
- Tested on: NCI-H460 lung
- assay_details: NCI-60 one-dose screen, 48 h (100 = growth as untreated, 0 = no growth, -100 = all killed)
- measurement_setup: 10 µM unless noted
This is part of a sample that, as a whole, favours compounds with a hit. Of some 83,000 tested, about 20% had one in any assay.
measurement_label: growth (%)

[[record]]
compound = "COc1ccc(C(O)c2cc3c(N)c(C(=O)Nc4cccc(Cl)c4)sc3nc2C)cc1 (centres undefined)"
measurement_label = "growth"
experimental_result = 1.28

[[record]]
compound = "Nc1c(C(=O)Nc2ccncc2)sc2nc3c(cc12)CCCCC3"
measurement_label = "growth"
experimental_result = 81.6

[[record]]
compound = "COc1ccc(C2=NN(C(C)=O)C(c3ccc(Oc4ccnc5cc(Cl)ccc45)c(OC)c3)C2)cc1 (centres undefined)"
measurement_label = "growth"
experimental_result = 30.7

[[record]]
compound = "COc1cc2oc(-c3cccc(NC(=O)c4ccc5c(c4)OCO5)c3)cc(=O)c2c(OC)c1OC"
measurement_label = "growth"
experimental_result = 27.2

[[record]]
compound = "CCCCCCOC(=O)CC1=C(C)/C(=C/c2[nH]c(-c3ccc[nH]3)cc2OC)N=C1C"
measurement_label = "growth"
experimental_result = -23

[[record]]
compound = "C/C(=C(\\c1ccc(OCCN2CCCCCC2)cc1)c1ccc(OC(=O)Cc2ccccc2)cc1)c1ccc(Cl)cc1"
measurement_label = "growth"
experimental_result = -60.1

[[record]]
compound = "C/C(=N\\Nc1nc(C)cs1)c1cc2ccccc2o1"
measurement_label = "growth"
experimental_result = 95.6

[[record]]
compound = "Cc1nn(-c2ccccc2)c(N2CCCCC2)c1/C=N/NC(=O)Cn1c(=O)sc2ccccc21"
measurement_label = "growth"
experimental_result = 81.5

[[record]]
compound = "CCN1CCN(CC(=O)Nc2nc3ccc(NCc4ccc(Br)cc4)cc3s2)CC1"
measurement_label = "growth"
experimental_result = 26.3


###

- Tested on: LOX IMVI melanoma
- assay_details: NCI-60 one-dose screen, 48 h
- measurement_setup: 10 µM unless noted
Compounds without any hit were thinned out: in the full panel of roughly 83,000, 20% have a hit. The source made the active and inactive calls. Rule for the calls: active = growth percent below 10; inactive = the rest.
Possible outcomes: active, inactive

[[record]]
compound = "Cc1cccc(N2CCN(C(=S)c3ccc4c(c3)OCO4)CC2)c1"
assigned_class = "inactive"

[[record]]
compound = "S=c1[nH]c2cc(Cl)ccc2o1"
assigned_class = "inactive"

[[record]]
compound = "Fc1ccc(CNc2c3ccccc3nc3ccccc23)cc1"
assigned_class = "active"

[[record]]
compound = "Cc1nn(-c2ccccc2)c(/N=C/N(C)C)c1/C=C/C(=O)c1ccc(Cl)cc1"
assigned_class = "inactive"

[[record]]
compound = "O=c1nc(Nc2nc3ccccc3s2)[nH]c(=O)c2ccccc12"
assigned_class = "inactive"

[[record]]
compound = "O=C(Cn1nnc([N+](=O)[O-])n1)c1ccccc1"
assigned_class = "inactive"

[[record]]
compound = "O=P(O)(O)OCC1OC(n2cnc3c(NCc4ccccc4)ncnc32)C(O)C1O (stereo unspecified)"
assigned_class = "active"

[[record]]
compound = "Cc1cc2oc(=O)cc(CP(=O)(O)O)c2cc1O"
assigned_class = "inactive"

[[record]]
compound = "C#CCOc1cccc(-c2ncc3cc(NC(=O)CCl)ccc3n2)c1"
assigned_class = "active"

[[record]]
compound = "O=C(O)c1cccc(N/C=C/C(=O)c2cc3cc(Br)ccc3oc2=O)c1"
assigned_class = "inactive"

[[record]]
compound = "CN1CCN(c2ccc3c(c2)nc(NNC(=O)c2cnccn2)c2cccn23)CC1"
assigned_class = "inactive"


###

- Tested on: A498 renal
- assay_details: NCI-60 one-dose screen, 48 h (100 = growth as untreated, 0 = no growth, -100 = all killed)
- measurement_setup: 10 µM unless noted
The panel holds about 83,000 compounds, 20% with a hit somewhere; the sample as a whole holds those more often.
List of growth values.
measurement_label: growth (%)

[[record]]
compound = "CCOC(=O)c1c(-c2ccc(Cl)cc2)c(C#N)c2c(C#N)c(N)nn2c1N"
measurement_label = "growth"
experimental_result = 29.3

[[record]]
compound = "c1ccc(CNc2ccc3nc(CCC4CCCCC4)[nH]c3c2)cc1"
measurement_label = "growth"
experimental_result = 42.7

[[record]]
compound = "CCCCCCCCCCCCCCCCOC(=O)c1c(C)[nH]c(/C=C2\\N=C(c3ccc[nH]3)C=C2OC)c1C"
measurement_label = "growth"
experimental_result = 33.9

[[record]]
compound = "C#CC#CC#CC#CC#CC#CC#CC#CC[C@H]1OC[C@H](COC(=O)O[C@@H](C(=O)O[C@H]2C[C@@]3(O)[C@@H](OC(=O)c4ccccc4)[C@@H]4[C@]5(OC(C)=O)CO[C@@H]5C[C@H](O)[C@@]4(C)C(=O)[C@H](OC(C)=O)C(=C2C)C3(C)C)[C@@H](NC(=O)c2ccccc2)c2ccccc2)O1"
measurement_label = "growth"
experimental_result = 50.2

[[record]]
compound = "Nc1c(C(=O)Nc2ccccn2)sc2nc3c(cc12)C(O)CCC3 (centres undefined)"
measurement_label = "growth"
experimental_result = 3.12

[[record]]
compound = "COc1cccc2c(N=NC(=O)c3ccc(S(N)(=O)=O)cc3)c(O)[nH]c12"
measurement_label = "growth"
experimental_result = 94.8

[[record]]
compound = "O=C(CN1C(=O)/C(=C/c2ccco2)SC1=S)NCCc1c[nH]c2ccc(F)cc12"
measurement_label = "growth"
experimental_result = 94.5

[[record]]
compound = "CCCCCSB(SCCCCC)c1ccccc1"
measurement_label = "growth"
experimental_result = 95.4

[[record]]
compound = "O=C1OCC2=C1C(c1cccc(C(F)(F)F)c1)c1cc3c(cc1N2CCO)OCO3 (centres undefined)"
measurement_label = "growth"
experimental_result = 20.9

[[record]]
compound = "O=C(Nc1ncc(Cc2ccccc2Cl)s1)c1cccs1"
measurement_label = "growth"
experimental_result = 67.1

[[record]]
compound = "CC(C)CCC[C@@H](C)C1CCC2C3CCC4=C/C(=N/OCCN(C)C)CC[C@]4(C)C3CC[C@@]21C (some centres undefined)"
measurement_label = "growth"
experimental_result = 80.8

[[record]]
compound = "Cc1nc2sc(C(=O)Nc3cccc(Cl)c3)c(N)c2cc1C(O)c1ccccc1 (centres undefined)"
measurement_label = "growth"
experimental_result = 8.38

[[record]]
compound = "CN1CCN(Cc2ccc(NC(=O)c3cncc(C#Cc4cnn5ccccc45)c3)cc2C(F)(F)F)CC1"
measurement_label = "growth"
experimental_result = -11.7

[[record]]
compound = "COc1ccc2c(c1)c(-c1cc(-c3cn(C)c4ccc(OC)cc34)on1)cn2C"
measurement_label = "growth"
experimental_result = 105

[[record]]
compound = "COc1ccc2nc3ccccc3c(NCc3ccc(F)cc3)c2c1"
measurement_label = "growth"
experimental_result = -8.16

[[record]]
compound = "COC1=CC(c2ccc[nH]2)=N/C1=C\\c1[nH]c(C)c(CC(=O)OCc2ccccc2)c1C"
measurement_label = "growth"
experimental_result = -11.9

[[record]]
compound = "C=CC(=O)N1CCN(c2ccc3cccc(NC(=O)c4cnc(C)cn4)c3n2)CC1"
measurement_label = "growth"
experimental_result = -12.7

[[record]]
compound = "CCOC(=O)c1c(C)nc2ccccc2c1/C=C/c1ccc(OC)cc1"
measurement_label = "growth"
experimental_result = 77.9

[[record]]
compound = "CN1C(=O)/C(=C/c2ccc(C(=O)Nc3ncc(Cc4ccc(F)cc4)s3)cc2)SC1=S"
measurement_label = "growth"
experimental_result = 35


Values were extracted from PubChem BioAssay (NCI).
